We begin with a simple list: items and their reported MIC Staphylococcus aureus (GC 4542).
Test system: Staphylococcus sp.
Assay: in vitro antibacterial evaluation, MIC by broth dilution
Format: cell-based
Conditions: broth dilution, 18 hours at 35° C.

Query (compound): CC(C)=CCCC(C)CC1OCC2OC(OC3C(CO)OC(Oc4ccc(CC5NC(=O)C(C(C)c6ccccc6)NC(=O)CNC(=O)C(CO)NC(=O)C(C(O)C6CNC(=N)N6C6OC(CO)C(O)C(O)C6O)NC(=O)C(C(O)C6CNC(=N)N6)NC5=O)cc4)C(O)C3O)C(O)C(O)C2O1 (centres unmarked) ; field requested: MIC Staphylococcus aureus (GC 4542) 8 µg/mL

Query (compound): COc1ccc2cc(COCC3OC(OC4C(CO)OC(Oc5ccc(CC6NC(=O)C(C(C)c7ccccc7)NC(=O)CNC(=O)C(CO)NC(=O)C(C(O)C7CNC(=N)N7C7OC(CO)C(O)C(O)C7O)NC(=O)C(C(O)C7CNC(=N)N7)NC6=O)cc5)C(O)C4O)C(O)C(O)C3O)ccc2c1 (centres unmarked) ; field requested: MIC Staphylococcus aureus (GC 4542) 2 µg/mL

====

System: Escherichia coli
Test: in vitro antibacterial evaluation, MIC by broth dilution
Assay type: cell-based
Settings: 18 hours at 35° C., strain GC 4560
We begin with a simple list: items and their reported MIC Escherichia coli (GC 4560).
Form entry: value (µg/mL) — number only.

Guide cases for MIC Escherichia coli (GC 4560), answers given:
# compound, tested on, MIC Escherichia coli (GC 4560) [µg/mL]
rows = [
    ("CCCCOC(=O)CCC1OCC2OC(OC3C(CO)OC(Oc4ccc(CC5NC(=O)C(C(C)c6ccccc6)NC(=O)CNC(=O)C(CO)NC(=O)C(C(O)C6CNC(=N)N6C6OC(CO)C(O)C(O)C6O)NC(=O)C(C(O)C6CNC(=N)N6)NC5=O)cc4)C(O)C3O)C(O)C(O)C2O1 (stereo not shown)", "Escherichia coli", 1),
    ("CC(C)=CCCC(C)CC1OCC2OC(OC3C(CO)OC(Oc4ccc(CC5NC(=O)C(C(C)c6ccccc6)NC(=O)CNC(=O)C(CO)NC(=O)C(C(O)C6CNC(=N)N6C6OC(CO)C(O)C(O)C6O)NC(=O)C(C(O)C6CNC(=N)N6)NC5=O)cc4)C(O)C3O)C(O)C(O)C2O1 (stereo not shown)", "Escherichia coli", 8),
]

Let's switch to this compound now.
Query (compound): Cc1cccc(C2OCC3OC(OC4C(CO)OC(Oc5ccc(CC6NC(=O)C(C(C)c7ccccc7)NC(=O)CNC(=O)C(CO)NC(=O)C(C(O)C7CNC(=N)N7C7OC(CO)C(O)C(O)C7O)NC(=O)C(C(O)C7CNC(=N)N7)NC6=O)cc5)C(O)C4O)C(O)C(O)C3O2)c1 (stereo not shown) ; field requested: MIC Escherichia coli (GC 4560) 0.5

====

We begin with a simple list: items and their reported MIC Enterococcus faecalis (GC 3059).
System: Enterococcus sp.
Assay: in vitro antibacterial evaluation, MIC by broth dilution
Format: cell-based
Settings: Enterococcus faecalis (GC 3059); broth dilution, 18 hours at 35° C.
Form entry: value (µg/mL) — number only.

# compound, MIC Enterococcus faecalis (GC 3059) (µg/mL)
rows = [
    ("CC(C)=CCCC(C)CC1OCC2OC(OC3C(CO)OC(Oc4ccc(CC5NC(=O)C(C(C)c6ccccc6)NC(=O)CNC(=O)C(CO)NC(=O)C(C(O)C6CNC(=N)N6C6OC(CO)C(O)C(O)C6O)NC(=O)C(C(O)C6CNC(=N)N6)NC5=O)cc4)C(O)C3O)C(O)C(O)C2O1 (stereo not drawn)", 8),
    ("CSc1ccc(C2OCC3OC(OC4C(CO)OC(Oc5ccc(CC6NC(=O)C(C(C)c7ccccc7)NC(=O)CNC(=O)C(CO)NC(=O)C(C(O)C7CNC(=N)N7C7OC(CO)C(O)C(O)C7O)NC(=O)C(C(O)C7CNC(=N)N7)NC6=O)cc5)C(O)C4O)C(O)C(O)C3O2)cc1 (stereo not drawn)", 4),
    ("Cc1cc(C2OCC3OC(OC4C(CO)OC(Oc5ccc(CC6NC(=O)C(C(C)c7ccccc7)NC(=O)CNC(=O)C(CO)NC(=O)C(C(O)C7CNC(=N)N7C7OC(CO)C(O)C(O)C7O)NC(=O)C(C(O)C7CNC(=N)N7)NC6=O)cc5)C(O)C4O)C(O)C(O)C3O2)ccc1[N+](=O)[O-] (stereo not drawn)", 32),
]

State its MIC Enterococcus faecalis (GC 3059) on Enterococcus sp.: CC(c1ccccc1)C1NC(=O)CNC(=O)C(CO)NC(=O)C(C(O)C2CNC(=N)N2C2OC(CO)C(O)C(O)C2O)NC(=O)C(C(O)C2CNC(=N)N2)NC(=O)C(Cc2ccc(OC3OC(CO)C(OC4OC5COC(Cc6ccc(F)cc6)OC5C(O)C4O)C(O)C3O)cc2)NC1=O (stereo not drawn) 2

State its MIC Enterococcus faecalis (GC 3059) on Enterococcus sp.: CC(c1ccccc1)C1NC(=O)CNC(=O)C(CO)NC(=O)C(C(O)C2CNC(=N)N2C2OC(CO)C(O)C(O)C2O)NC(=O)C(C(O)C2CNC(=N)N2)NC(=O)C(Cc2ccc(OC3OC(CO)C(OC4OC5COC(Cc6ccc(Cl)cc6)OC5C(O)C4O)C(O)C3O)cc2)NC1=O (stereo not drawn) 1

State its MIC Enterococcus faecalis (GC 3059) on Enterococcus sp.: CC(c1ccccc1)C1NC(=O)CNC(=O)C(CO)NC(=O)C(C(O)C2CNC(=N)N2C2OC(CO)C(O)C(O)C2O)NC(=O)C(C(O)C2CNC(=N)N2)NC(=O)C(Cc2ccc(OC3OC(CO)C(OC4OC5COC(c6ccc7ccccc7c6)OC5C(O)C4O)C(O)C3O)cc2)NC1=O (stereo not drawn) 1

====

Tested on: Enterococcus sp.
Assay: in vitro antibacterial evaluation, MIC by broth dilution
Assay type: cell-based
Conditions: broth dilution, inoculum 5×10^5 CFU/mL, 18 hours at 35° C.; strain GC 3059
We begin with a simple list: items and their reported MIC Enterococcus faecalis (GC 3059).
Form entry: value (µg/mL) — number only.

Guide cases for MIC Enterococcus faecalis (GC 3059), answers given:
# compound, MIC Enterococcus faecalis (GC 3059), µg/mL
measured = [
    ("COc1ccc2cc(C3OCC4OC(OC5C(CO)OC(Oc6ccc(CC7NC(=O)C(C(C)c8ccccc8)NC(=O)CNC(=O)C(CO)NC(=O)C(CC8CNC(=N)N8C8OC(CO)C(O)C(O)C8O)NC(=O)C(CC8CNC(=N)N8)NC7=O)cc6)C(O)C5O)C(O)C(O)C4O3)ccc2c1 (stereo not shown) [Example 190]", 32),
    ("CC(c1ccccc1)C1NC(=O)CNC(=O)C(CO)NC(=O)C(C(O)C2CNC(=N)N2C2OC(CO)C(O)C(O)C2O)NC(=O)C(C(O)C2CNC(=N)N2)NC(=O)C(Cc2ccc(OC3OC(CO)C(OC4OC(CO)C(OCC=Cc5ccc(N(C)C)cc5)C(O)C4O)C(O)C3O)cc2)NC1=O (stereo not shown) [Example 243a]", 32),
]

Let's switch to this compound now.
Query (compound): CSc1ccc(C2OCC3OC(OC4C(CO)OC(Oc5ccc(CC6NC(=O)C(C(C)c7ccccc7)NC(=O)CNC(=O)C(CO)NC(=O)C(C(O)C7CNC(=N)N7C7OC(CO)C(O)C(O)C7O)NC(=O)C(C(O)C7CNC(=N)N7)NC6=O)cc5)C(O)C4O)C(O)C(O)C3O2)cc1[N+](=O)[O-] (stereo not shown) [Example 168] ; field requested: MIC Enterococcus faecalis (GC 3059) 2

====

Test system: Enterococcus sp.
Experiment: in vitro antibacterial evaluation, MIC by broth dilution
Format: cell-based
Conditions: broth dilution, 18 hours at 35° C.; strain GC 4558
We begin with a simple list: items and their reported MIC Enterococcus avium (GC 4558).
Form entry: value (µg/mL) — number only.

Guide cases for MIC Enterococcus avium (GC 4558), answers given:
# molecule, unit label, MIC Enterococcus avium (GC 4558)
rows = [
    ("CC(c1ccccc1)C1NC(=O)CNC(=O)C(CO)NC(=O)C(C(O)C2CNC(=N)N2C2OC(CO)C(O)C(O)C2O)NC(=O)C(C(O)C2CNC(=N)N2)NC(=O)C(Cc2ccc(OC3OC(CO)C(OC4OC(CO)C(O)C(O)C4O)C(O)C3O)c(N)c2)NC1=O (stereo not shown)", "µg/mL", 64),
    ("CC(c1ccccc1)C1NC(=O)CNC(=O)C(CO)NC(=O)C(C(O)C2CNC(=N)N2C2OC(CO)C(O)C(O)C2O)NC(=O)C(C(O)C2CNC(=N)N2)NC(=O)C(Cc2ccc(OC3OC(CO)C(OC4OC5COC(CCc6ccccc6)OC5C(O)C4O)C(O)C3O)cc2)NC1=O (stereo not shown)", "µg/mL", 0.25),
]

Let's switch to this molecule now.
Query (molecule): CC(c1ccccc1)C1NC(=O)CNC(=O)C(CO)NC(=O)C(C(O)C2CNC(=N)N2C2OC(CO)C(O)C(O)C2O)NC(=O)C(C(O)C2CNC(=N)N2)NC(=O)C(Cc2ccc(OC3OC(CO)C(OC4OC(COCC=C(c5ccccc5)c5ccccc5)C(O)C(O)C4O)C(O)C3O)cc2)NC1=O (stereo not shown) ; field requested: MIC Enterococcus avium (GC 4558) 4
